# Target Under Test: T1, FX activation peptide 12-mer SSGEAPDSITWK (human)
# T1 peptide: SSGEAPDSITWK-biotin
# Method Notes: peptide ELISA
Ends that are not written are not given here.
Assay Readout: ELISA signal relative to background

| Binder | Quantitative Readout |
| --- | --- |
| Nb 730C03 (VHH, monovalent Nanobody; also called Nb 730003; not shown: C-terminal FLAG3 and HIS6 tag) VHH: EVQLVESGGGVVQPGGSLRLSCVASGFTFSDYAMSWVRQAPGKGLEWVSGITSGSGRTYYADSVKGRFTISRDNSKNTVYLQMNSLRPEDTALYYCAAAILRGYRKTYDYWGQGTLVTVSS | 1.22 |
| Nb 702C12 (VHH, monovalent Nanobody; not shown: C-terminal FLAG3 and HIS6 tag) VHH: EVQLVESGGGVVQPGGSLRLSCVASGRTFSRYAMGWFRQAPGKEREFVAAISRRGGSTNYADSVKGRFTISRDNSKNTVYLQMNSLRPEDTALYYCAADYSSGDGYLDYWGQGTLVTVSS | 0.88 |
| Nb 701D07 (VHH, monovalent Nanobody; not shown: C-terminal FLAG3 and HIS6 tag) VHH: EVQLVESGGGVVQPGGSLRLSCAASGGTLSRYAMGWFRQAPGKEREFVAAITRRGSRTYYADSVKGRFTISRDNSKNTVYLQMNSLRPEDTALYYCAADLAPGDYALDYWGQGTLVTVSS | 0.74 |
| Nb 501A02 (VHH, monovalent control Nanobody; also called control Nanobody; not shown: C-terminal FLAG3 and HIS6 tag) VHH: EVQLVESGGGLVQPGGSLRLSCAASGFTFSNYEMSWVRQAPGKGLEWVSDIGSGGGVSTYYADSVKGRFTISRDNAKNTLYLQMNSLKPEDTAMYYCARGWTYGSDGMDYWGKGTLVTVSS | 0.71 |

Ref: patent US20210054097A1
